# Test system: RXF 393 renal
# assayExplanation: NCI-60 one-dose screen, 48 h
# measurementContext: 10 µM unless noted
The panel holds about 83,000 compounds, 20% with a hit somewhere; the sample as a whole holds those more often. Active and inactive are the calls of the source. The calls were made as follows: active = growth percent below 10; inactive = the rest.
// classify into yes (1) = active, no (0) = inactive

Solved cases below.
{"molecule": "C=C1CC2(OC1=O)C(=O)N(CCCCCCCN1C(=O)C3(CC(=C)C(=O)O3)c3ccccc31)c1ccccc12 (stereo not drawn)", "group": "yes (1)"}
{"molecule": "CCCC(=O)Oc1ccc(/C(=C(/CC)Cc2ccccc2)c2ccc(OCCN3CCCC3)cc2)cc1", "group": "no (0)"}
{"molecule": "COc1ccc(-c2cc(C(=O)N=Nc3c(O)[nH]c4ccccc34)no2)cc1", "group": "no (0)"}
{"molecule": "CC/C(Cc1ccccc1)=C(/c1ccc(O)cc1)c1ccc(OCCN2CCCC2)cc1", "group": "yes (1)"}
{"molecule": "COc1ccc2nc3cc(Cl)ccc3c(N3CCN(c4nccc(NCc5ccccc5)n4)CC3)c2c1", "group": "no (0)"}
{"molecule": "C[C@@H]1CC[C@@H]2[C@@H]1[C@H](OC(=O)/C=C/c1ccccc1)[C@]1(C3CCCCC3)C[C@@H](OC(=O)CO)[C@@]2(C)O1", "group": "no (0)"}
{"molecule": "O=C(COc1cccc(/C=C2/Oc3ccccc3C2=O)c1)Nc1nccs1", "group": "yes (1)"}
{"molecule": "CSc1ncnc2c1ncn2C1CCCO1 (stereo not drawn)", "group": "no (0)"}
{"molecule": "CCN(CC)CC#CCOC(=O)[C@]1(C)CCC[C@@]2(C)[C@H]1CC(C=O)=C1C=C(C(C)C)CC[C@@H]12", "group": "no (0)"}
{"molecule": "Cc1ccccc1CCO", "group": "no (0)"}

Asked: What is the recorded call for this molecule in the test? `CCCNc1nc(SC)nc(-c2cccc(N)c2)c1C#N`
Given back: no (0)

Asked: What is the recorded call for this molecule in the test? `O=C1c2cc3c(cc2-c2c1c1cc(Cl)c(Cl)cc1c(=O)n2CCCn1ccnc1)OCO3`
Given back: yes (1)

Asked: What is the recorded call for this molecule in the test? `O=C(Cc1ccccc1)c1ccc(Cl)cc1`
Given back: no (0)

Asked: What is the recorded call for this molecule in the test? `C=C(C[n+]1ccccc1)[C@@H]1CC[C@]2(C(=O)OC)CC[C@]3(C)[C@H](CC[C@@H]4[C@@]5(C)CC[C@H](O)C(C)(C)[C@@H]5CC[C@]43C)[C@@H]12`
Given back: no (0)

Asked: What is the recorded call for this molecule in the test? `Cc1[nH]n(-c2ccccc2)c2nc3nncc3c(-c3ccc(Cl)cc3)c12`
Given back: no (0)
